- Test system: Vero E6 infected with SARS-CoV-2
- ASSAY: inhibition of SARS-CoV-2 cytopathic effect; higher = more antiviral protection, active = above 15
- DETAILS: 100 nM; 48 h
inhibition of SARS-CoV-2 cytopathic effect listing for selected compounds.
REPORTED_METRIC: inhibition of SARS-CoV-2 cytopathic effect (%)

[[record]]
compound = "Fc1cc(F)c2c(c1)[C@H]1C=CC[C@H]1C(c1cccnc1)N2 (stereo not given in full) [Golgicide A]"
reported_value = -0.27

[[record]]
compound = "COc1ccc(-c2nc(-c3ccc(-c4cccc(Cl)c4)o3)[nH]c2-c2ccc(OC)cc2)cc1 [neurodazine]"
reported_value = 4.87

[[record]]
compound = "Cc1oc(=O)oc1CN1CCN(c2cc3c(cc2F)c(=O)c(C(=O)O)c2n3C(C)S2)CC1 (stereo not given) [prulifloxacin]"
reported_value = -3.24

[[record]]
compound = "C[C@](N)(Cc1ccc(O)cc1)C(=O)O [metirosine]"
reported_value = 7.36

[[record]]
compound = "CC(C)(C)c1ccc(CN(Cc2cccc(OCC(=O)O)c2)S(=O)(=O)c2cccnc2)cc1 [evatanepag]"
reported_value = -1.94

[[record]]
compound = "O=C(O)CCNc1cc(N2CCc3ccccc3CC2)nc(-c2cccnc2)n1"
reported_value = 1.71

[[record]]
compound = "CCCCC(=O)O[C@]1(C(=O)CO)[C@@H](C)C[C@H]2[C@@H]3CCC4=CC(=O)C=C[C@]4(C)[C@@]3(F)[C@@H](O)C[C@@]21C"
reported_value = -2.96

[[record]]
compound = "Cc1cc(O)c2c(c1)C(=O)c1cc(O)cc(O)c1C2=O [emodin]"
reported_value = -1.79

[[record]]
compound = "C=C[C@]1(C)C[C@@H](OC(=O)CS[C@@H]2C[C@H]3CC[C@@H](C2)N3C)[C@]2(C)[C@H](C)CC[C@]3(CCC(=O)[C@H]32)[C@@H](C)[C@@H]1O [retapamulin]"
reported_value = 1.21

[[record]]
compound = "C[C@@H](CN(C)C)CN1c2ccccc2Sc2ccccc21 (racemic) [alimemazine]"
reported_value = -1.76

[[record]]
compound = "Nc1ccc(/N=N/c2ccccc2)c(N)n1 [phenazopyridine]"
reported_value = 0.72

[[record]]
compound = "CCCCCCCC(=O)N[C@H](CN1CCCC1)[C@H](O)c1ccc2c(c1)OCCO2 [eliglustat]"
reported_value = -0.12

[[record]]
compound = "CO[C@H]1/C=C/O[C@@]2(C)Oc3c(C)c(O)c4c(O)c(c(/C=N/N=C/N5CCCCC5)c(O)c4c3C2=O)NC(=O)/C(C)=C\\C=C\\[C@H](C)[C@H](O)[C@@H](C)[C@@H](O)[C@@H](C)[C@H](OC(C)=O)[C@@H]1C"
reported_value = 6.01

[[record]]
compound = "NCCC[C@H](N)CC(=O)N[C@H]1CNC(=O)[C@H]([C@H]2C[C@H](O)NC(N)=N2)NC(=O)/C(=C/NC(N)=O)NC(=O)[C@H](CO)NC(=O)[C@H](CO)NC1=O [viomycin]"
reported_value = -1.8

[[record]]
compound = "Cc1nnc2n1-c1sc(CCC(=O)N3CCOCC3)cc1C(c1ccccc1Cl)=NC2 [apafant]"
reported_value = 0.93


* * *

- Tested on: Vero E6 infected with SARS-CoV-2
- ASSAY: inhibition of SARS-CoV-2 cytopathic effect; higher = more antiviral protection, active = above 15
- DETAILS: 833.33 nM; 48 h
REPORTED_METRIC: inhibition of SARS-CoV-2 cytopathic effect

[[record]]
compound = "C[C@]12CC[C@H]3[C@@H](CC[C@@]45O[C@@H]4C(O)=C(C#N)C[C@]35C)[C@@H]1CC[C@@H]2O"
reported_value = "0.24% (inactive)"

[[record]]
compound = "CC[C@@]1(O)C(=O)OCc2c1cc1n(c2=O)Cc2cc3cc(O)ccc3nc2-1 [10-hydroxycamptothecin]"
reported_value = "-12.8% (inactive)"

[[record]]
compound = "CCCC1(CCC)CCC2(CCN(CCCN(CC)CC)C2)CC1"
reported_value = "-4.7% (inactive)"

[[record]]
compound = "COc1ccc2cc([C@H](C)C(=O)O)ccc2c1"
reported_value = "-1.2% (inactive)"

[[record]]
compound = "CSc1ccc(OCc2ncc([N+](=O)[O-])n2C)cc1"
reported_value = "-3.53% (inactive)"

[[record]]
compound = "N[C@@H]1CN(c2c(F)cc3c(=O)c(C(=O)O)cn([C@@H]4C[C@@H]4F)c3c2Cl)CC12CC2"
reported_value = "-1.2% (inactive)"

[[record]]
compound = "NC(=O)N1C(=O)/C(=C(\\O)c2cccs2)c2cc(Cl)ccc21"
reported_value = "1.99% (inactive)"

[[record]]
compound = "Nc1nc(OCc2cc(Br)cs2)c2[nH]cnc2n1"
reported_value = "-0.89% (inactive)"

[[record]]
compound = "CCN(CC)CCNC(=O)c1cc(S(C)(=O)=O)ccc1OC [tiapride]"
reported_value = "0.66% (inactive)"

[[record]]
compound = "O=C(NC[C@H]1CN(c2ccc(N3CCOCC3=O)cc2)C(=O)O1)c1ccc(Cl)s1"
reported_value = "1.51% (inactive)"

[[record]]
compound = "CC(C)=CCC/C(C)=C/CC/C(C)=C/CSc1ccccc1C(=O)O"
reported_value = "6.06% (inactive)"

[[record]]
compound = "C=C1C(=O)O[C@@H]2/C=C(\\C)CC/C=C(\\C)CC[C@@H]12 [costunolide]"
reported_value = "2.87% (inactive)"

[[record]]
compound = "c1cnc2c([O][Ga]([O]c3cccc4cccnc34)[O]c3cccc4cccnc34)cccc2c1 [gallium-triquinolin-8-olate]"
reported_value = "4.98% (inactive)"

[[record]]
compound = "OCCOCCN1CCN(C(c2ccccc2)c2ccc(Cl)cc2)CC1 (configuration not stated) [hydroxyzine]"
reported_value = "-1.88% (inactive)"

[[record]]
compound = "O=C(O)[C@H]1CCCN(CCC=C(c2ccccc2)c2ccccc2)C1 (racemic)"
reported_value = "-4.16% (inactive)"

[[record]]
compound = "O=S(=O)(O)CCSSCCS(=O)(=O)O"
reported_value = "-1.27% (inactive)"

[[record]]
compound = "C[C@@]12C[C@@]3(O)O[C@@H](O1)[C@]1(COC(=O)c4ccccc4)[C@H]3C[C@@]12O[C@@H]1O[C@H](CO)[C@@H](O)[C@H](O)[C@H]1O"
reported_value = "0.8% (inactive)"


// data source = the supplement of paper PMC13380429
